Test: PAX8 transcriptional activity inhibition in RMG-I – RMG-I cells, luciferase, single concentration, primary screen (AID 652154);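 also: luciferase light reporting Pax8 driven TPO promoter activity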
Settings: RMG-I TPO-luciferase reporter, SteadyGlo, 24 h; at 12.6 µM
In all, about 360,000 compounds went through this assay and about 4,200 (1.2%) were called active.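 The calls were made as follows: active = mean replicate inhibition at least 60% with every replicate also reaching 60%; inconclusive = only one of the two criteria is met; inactive = mean below 60% and not all replicates reaching 60%.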 The sample as a whole holds a higher share of actives than the screen did.
Permitted responses: Y (active), N (inactive)

COMPOUND	CLASS_LABEL
COc1ccccc1-c1ccc2c(c1)O[C@H](CN(C)C(=O)c1cccnc1)[C@H](C)CN([C@@H](C)CO)S2(=O)=O	N
Cc1ccc(S(=O)(=O)N(C)C[C@@H]2OCCCC[C@@H](C)Oc3ccc(NS(=O)(=O)c4ccccc4)cc3C(=O)N([C@H](C)CO)C[C@@H]2C)cc1	N
COc1ccc(S(=O)(=O)Nc2ccc3c(c2)C(=O)N([C@H](C)CO)C[C@@H](C)[C@H](CN(C)S(=O)(=O)c2ccc(Cl)cc2)OCCCC[C@@H](C)O3)cc1	N
O=C(NCCN1CCOCC1)c1ccc2c(c1)N(Cc1cccc(Cl)c1)C(=O)c1ccccc1S2(=O)=O	N
CN(CC1CCCO1)S(=O)(=O)c1ccc(C(=O)Nc2ccc([N+](=O)[O-])cc2)cc1 (centres undefined)	N

Asked: // return assay outcome for Cn1ccc(=Nc2ccc(NC(=O)c3ccc(N=c4ccn(C)c5ccc([N+](=O)[O-])cc45)cc3)cc2)cc1
Given back: Y

Asked: Same again, this time with CCC(=O)N1[C@@H]2c3ccc(-c4ccc(F)cc4)c(=O)n3C[C@H]1[C@H](CO)[C@H]2C(=O)N(C)C
Given back: N

Asked: Ok, now C[C@H]1CN([C@@H](C)CO)C(=O)c2ccccc2-c2ccccc2CO[C@H]1CN(C)S(=O)(=O)c1ccccc1C#N
Given back: N

Asked: What about Cc1ccc(S(=O)(=O)Nc2ccc3c(c2)C(=O)N([C@H](C)CO)C[C@@H](C)[C@H](CN(C)S(=O)(=O)c2ccc(C)cc2)OCCCC[C@@H](C)O3)cc1 ?
Given back: Y

Asked: // same read-out, input: COCC(=O)Nc1ccc2c(c1)OC[C@@H](C)N(C(=O)CC1CC1)C[C@@H](C)[C@@H](OC)CN(C)C2=O
Given back: N

Asked: Would you kindly repeat that for C[C@@H]1CN([C@H](C)CO)C(=O)c2cccc(NC(=O)c3nc4ccccc4s3)c2O[C@H]1CN(C)S(=O)(=O)c1ccc(Cl)cc1 ?
Given back: Y

Asked: Same read-out for CCN1CCN(CCNC(=O)c2ccc(/C=C3/Sc4ccccc4N(Cc4cccc(C)c4)C3=O)cc2)CC1 ?
Given back: Y

Asked: Could you do the same for C[C@@H]1CN([C@H](C)CO)C(=O)c2cc(NS(=O)(=O)c3ccccc3)ccc2O[C@@H](C)CCCCO[C@H]1CN(C)S(=O)(=O)c1ccc(Cl)cc1 , please?
Given back: Y

Asked: Queued: C[C@@H]1CN([C@H](C)CO)C(=O)c2cccc(NS(=O)(=O)c3ccccc3)c2O[C@@H]1CN(C)Cc1ccc(C(=O)O)cc1
Given back: N
